System: 699152-130-R-J1-PDC complex spheroid viability;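 note: spheroids exposed to agents for 7 days before viability reading; percent of DMSO vehicle control viability so 100% = vehicle and 0% = no viable signal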
Assay: Anticancer human tumor 699152-130-R-J1-PDC patient-derived pancreatic carcinoma cell line growth inhibition [POLQ]
Settings: second compound 0.0316 µM; first compound 0.316 µM; hits give low values
Measurement label: viability, T/C

Here are 8 compounds. What values of viability, T/C were reported for them?
1. CCc1c2c(nc3ccc(O)cc13)-c1cc3c(c(=O)n1C2)COC(=O)[C@]3(O)CC + Nc1ccc(C#CCN(C(=O)Cc2ncc(C(F)(F)F)cc2C(F)(F)F)c2ccc(F)cc2)nn1
2. COc1ccc([C@@H](O)c2cc(-c3ncnc4cc(N5CCOCC5)ccc34)c(F)cc2Cl)nn1 + Nc1ccc(C#CCN(C(=O)Cc2ncc(C(F)(F)F)cc2C(F)(F)F)c2ccc(F)cc2)nn1
3. O=c1[nH]cc(F)c(=O)[nH]1 + COC1C(OC(N)=O)C(O)C(Oc2ccc3c(O)c(NC(=O)c4ccc(O)c(CC=C(C)C)c4)c(=O)oc3c2C)OC1(C)C
4. CC1COCCN1c1cc(-c2ccnn2C)c2ccnc(-c3ccn[nH]3)c2n1 (stereo not drawn) + Nc1ccc(C#CCN(C(=O)Cc2ncc(C(F)(F)F)cc2C(F)(F)F)c2ccc(F)cc2)nn1
5. O=C(c1cc(Cc2n[nH]c(=O)c3ccccc23)ccc1F)N1CCN(C(=O)C2CC2)CC1 + COC1C(OC(N)=O)C(O)C(Oc2ccc3c(O)c(NC(=O)c4ccc(O)c(CC=C(C)C)c4)c(=O)oc3c2C)OC1(C)C
6. CC1COCCN1c1cc(C2(O)CC3CCC(C2)O3)c2cnn(-c3ccn[nH]3)c2n1 (stereo not drawn) + Nc1ccc(C#CCN(C(=O)Cc2ncc(C(F)(F)F)cc2C(F)(F)F)c2ccc(F)cc2)nn1
7. COc1cc(C2c3cc4c(cc3C(OC3OC5COC(C)OC5C(O)C3O)C3COC(=O)C23)OCO4)cc(OC)c1O (stereo not drawn) + Nc1ccc(C#CCN(C(=O)Cc2ncc(C(F)(F)F)cc2C(F)(F)F)c2ccc(F)cc2)nn1
8. C=CC(=O)N1CCN(c2nc(=O)n(-c3c(C)ccnc3C(C)C)c3nc(-c4c(O)cccc4F)c(F)cc23)C(C)C1 (stereo not drawn) + Cc1cccc(N(C)C(=O)C2C(O)CCN2c2nc(C)cc(C(F)(F)F)c2C#N)c1

1. 36.4%
2. 82.5%
3. 108%
4. 80.4%
5. 35.3%
6. 60.7%
7. 79.5%
8. 102%
